molecular target: BRAF V600E (Homo sapiens, UniProt P15056, V600E); construct: expressed in transfected cells; experiment: Cellular assay of target protein degradation, T-Rex 293 cells stably transfected with HA-BRAF_V600E (HA immunofluorescence, high content imaging); format: cell-based; settings: maximum degradation observed, T-Rex 293 HA-BRAF V600E
Sequence (P15056 whole entry V600E): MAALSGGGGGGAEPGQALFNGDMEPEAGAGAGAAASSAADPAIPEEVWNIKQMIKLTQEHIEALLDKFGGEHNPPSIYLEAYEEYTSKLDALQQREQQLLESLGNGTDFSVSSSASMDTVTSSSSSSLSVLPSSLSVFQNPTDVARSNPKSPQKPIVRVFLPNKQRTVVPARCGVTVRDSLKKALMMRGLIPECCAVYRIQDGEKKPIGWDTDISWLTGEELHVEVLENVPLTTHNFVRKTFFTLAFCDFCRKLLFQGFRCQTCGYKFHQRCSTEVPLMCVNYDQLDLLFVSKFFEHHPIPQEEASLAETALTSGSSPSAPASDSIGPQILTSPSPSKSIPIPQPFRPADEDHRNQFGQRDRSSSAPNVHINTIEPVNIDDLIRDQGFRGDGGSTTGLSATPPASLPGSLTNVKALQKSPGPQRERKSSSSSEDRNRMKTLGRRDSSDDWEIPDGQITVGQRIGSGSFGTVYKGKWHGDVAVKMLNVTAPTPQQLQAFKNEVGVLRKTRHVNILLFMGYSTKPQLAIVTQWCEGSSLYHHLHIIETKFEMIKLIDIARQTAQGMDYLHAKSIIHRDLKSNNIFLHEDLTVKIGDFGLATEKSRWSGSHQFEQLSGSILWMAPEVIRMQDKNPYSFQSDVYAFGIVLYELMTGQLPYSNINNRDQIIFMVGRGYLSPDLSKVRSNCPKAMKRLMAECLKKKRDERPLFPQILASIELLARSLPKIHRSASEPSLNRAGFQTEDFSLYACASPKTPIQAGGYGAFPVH
assayMetric: Dmax

compound: O=C1CCC(N2Cc3cc(C4CCN(C[C@H]5C[C@H]6CC[C@@H](C5)N6c5ccc(-c6cnc7[nH]cc(C(=O)c8c(F)ccc(NS(=O)(=O)N9CC[C@@H](F)C9)c8F)c7c6)cc5)CC4)ccc3C2=O)C(=O)N1 (some centres unmarked)
assaySystem: BRAF V600E (Homo sapiens, UniProt P15056, V600E)
Dmax: 35 to 70%

I am curious: what Dmax value has been reported for O=C1CC[C@@H](N2Cc3cc(N4CC[C@@H](COc5ccc(-c6cnc7[nH]cc(C(=O)c8c(F)ccc(NS(=O)(=O)N9CC[C@@H](F)C9)c8F)c7c6)cc5)C4)ccc3C2=O)C(=O)N1 ? 35 to 70%

###

target: BRAF V600E (Homo sapiens, UniProt P15056, V600E); construct: expressed in transfected cells; assay: Cellular assay of target protein degradation, T-Rex 293 cells stably transfected with HA-BRAF_V600E (HA immunofluorescence, high content imaging); type: cell-based; conditions: maximum degradation observed, T-Rex 293 HA-BRAF V600E
assayMetric: Dmax

Solved cases (4 shown):
compound: N#Cc1cc(-c2cnc3[nH]cc(C(=O)c4c(F)ccc(NS(=O)(=O)N5CC[C@@H](F)C5)c4F)c3c2)ccc1N1CCC(CN2CCC(c3ccc4c(c3)CN(C3CCC(=O)NC3=O)C4=O)CC2)CC1 (stereo partly drawn)
Dmax: 35 to 70%
--
compound: O=C1CCC(N2Cc3cc(N4CCC(O)(CN5CC6(C5)CN(c5ccc(-c7cnc8[nH]cc(C(=O)c9c(F)ccc(NS(=O)(=O)N%10CC[C@@H](F)C%10)c9F)c8c7)cc5)C6)CC4)ccc3C2=O)C(=O)N1 (stereo partly drawn)
Dmax: 35 to 70%
--
compound: O=C1CCC(N2Cc3cc(C4CCN(C[C@H](O)Cc5ccc(-c6cnc7[nH]cc(C(=O)c8c(F)ccc(NS(=O)(=O)N9CC[C@@H](F)C9)c8F)c7c6)cc5)CC4)ccc3C2=O)C(=O)N1 (stereo partly drawn)
Dmax: 35 to 70%
--
compound: O=C1CCC(N2Cc3cc(N4CCC(CN5CCC6(CCN(c7ccc(-c8cnc9[nH]cc(C(=O)c%10c(F)ccc(NS(=O)(=O)N%11CC[C@@H](F)C%11)c%10F)c9c8)cc7F)CC6)C5)CC4)ccc3C2=O)C(=O)N1 (stereo partly drawn)
Dmax: < 35%

For each of the compounds below, note its Dmax.
1. O=C1CCC(c2ccc(N3CC4(CN(CC5CCN(c6ccc(-c7cnc8[nH]cc(C(=O)c9c(F)ccc(NS(=O)(=O)N%10CC[C@@H](F)C%10)c9F)c8c7)cc6)CC5)C4)C3)cc2)C(=O)N1 (stereo partly drawn)
2. O=C1CCC(N2Cc3cc(C(O)CN4CCN(c5ccc(-c6cnc7[nH]cc(C(=O)c8c(F)ccc(NS(=O)(=O)N9CC[C@@H](F)C9)c8F)c7c6)cc5)CC4)ccc3C2=O)C(=O)N1 (stereo partly drawn)
3. O=C1CCC(N2Cc3cc(C4CCN(CC5(O)CCN(c6ccc(-c7cnc8[nH]cc(C(=O)c9c(F)ccc(NS(=O)(=O)N%10CC[C@@H](F)C%10)c9F)c8c7)cc6)CC5)CC4)ccc3C2=O)C(=O)N1 (stereo partly drawn)
4. O=C1CC[C@H](N2Cc3cc(C4CN(CC5CCN(c6ccc(-c7cnc8[nH]cc(C(=O)c9c(F)ccc(NS(=O)(=O)N%10CC[C@@H](F)C%10)c9F)c8c7)cc6)CC5)C4)ccc3C2=O)C(=O)N1
5. C[C@H]1C[C@@H](CN2CCC(c3ccc4c(c3)CN([C@H]3CCC(=O)NC3=O)C4=O)CC2)CCN1c1ccc(-c2cnc3[nH]cc(C(=O)c4c(F)ccc(NS(=O)(=O)N5CC[C@@H](F)C5)c4F)c3c2)cc1

["35 to 70%", "35 to 70%", "35 to 70%", "> 70%", "35 to 70%"]

###

Would you mind telling me the reported Dmax of each entry?
target: BRAF G466V (Homo sapiens, UniProt P15056, G466V); construct: expressed in transfected cells; experiment: Cellular assay of target protein degradation, T-Rex 293 cells stably transfected with HA-BRAF G466V (HA immunofluorescence, high content imaging); type: cell-based; conditions: maximum degradation observed, T-Rex 293 HA-BRAF G466V
Sequence (P15056 whole entry G466V): as the sequence (P15056 whole entry V600E) above, with G466V, E600V counted along it

Solved cases (3 shown):
compound: COc1cc(N2CCC(CN3CC4(C3)CN(c3ccc(-c5cnc6[nH]cc(C(=O)c7c(F)ccc(NS(=O)(=O)N8CC[C@@H](F)C8)c7F)c6c5)cc3)C4)CC2)cc2c1C(=O)N([C@@H]1CCC(=O)NC1=O)C2
Dmax: > 70%

compound: O=C1CC[C@@H](N2Cc3cc(N4CC(CN5C[C@@H]6CN(c7ccc(-c8cnc9[nH]cc(C(=O)c%10c(F)ccc(NS(=O)(=O)N%11CC[C@@H](F)C%11)c%10F)c9c8)cc7)C[C@@H]6C5)C4)ccc3C2=O)C(=O)N1
Dmax: > 70%

compound: O=C1CC[C@H](NC(=O)c2ccc(N3CCC(CN4CC5(C4)CN(c4ccc(-c6cnc7[nH]cc(C(=O)c8c(F)ccc(NS(=O)(=O)N9CC[C@@H](F)C9)c8F)c7c6)cc4)C5)CC3)cc2F)C(=O)N1
Dmax: 35 to 70%

Turning now to a further record.
I am curious: what Dmax value has been reported for O=C1CCC(N2Cc3cc(C4CCN(CC5CCN(c6ccc(-c7cnc8[nH]cc(C(=O)c9c(Cl)ccc(NS(=O)(=O)N%10CC[C@@H](F)C%10)c9Cl)c8c7)cc6)CC5)CC4)ccc3C2=O)C(=O)N1 (stereo partly shown) ? < 35%

###

molecular target: BRAF V600E (Homo sapiens, UniProt P15056, V600E); construct: expressed in transfected cells; test: Cellular assay of target protein degradation, T-Rex 293 cells stably transfected with HA-BRAF_V600E (HA immunofluorescence, high content imaging); format: cell-based; conditions: half maximal degradation, T-Rex 293 HA-BRAF V600E; read-out: BRaf V600E DC50
Would you mind telling me the reported DC50 of each entry?

Solved cases (4 shown):
compound: O=C1CCC(N2Cc3cc(O[C@H]4C[C@@]5(COCCN5CC5CCN(c6ccc(-c7cnc8[nH]cc(C(=O)c9c(F)ccc(NS(=O)(=O)N%10CC[C@@H](F)C%10)c9F)c8c7)cc6)CC5)C4)ccc3C2=O)C(=O)N1 (stereo partly drawn)
assaySystem: BRAF V600E (Homo sapiens, UniProt P15056, V600E)
measurement: > 500 nM
--
compound: O=C1CCC(N2Cc3cc(N4CC(CC5CCN(c6ccc(-c7cnc8[nH]cc(C(=O)c9c(F)ccc(NS(=O)(=O)N%10CC[C@@H](F)C%10)c9F)c8c7)cc6)CC5)C4)ccc3C2=O)C(=O)N1 (stereo partly drawn)
assaySystem: BRAF V600E (Homo sapiens, UniProt P15056, V600E)
measurement: 50 to 500 nM
--
compound: N#Cc1cc(-c2cnc3[nH]cc(C(=O)c4c(F)ccc(NS(=O)(=O)N5CC[C@@H](F)C5)c4F)c3c2)cc(C#N)c1N1CCC(CN2CCC(c3ccc4c(c3)CN(C3CCC(=O)NC3=O)C4=O)CC2)CC1 (stereo partly drawn)
assaySystem: BRAF V600E (Homo sapiens, UniProt P15056, V600E)
measurement: 5 to 50 nM
--
compound: O=C1CC[C@@H](NC(=O)N2CCCc3c(C4CCN(CC5CCN(c6ccc(-c7cnc8[nH]cc(C(=O)c9c(F)ccc(NS(=O)(=O)N%10CC[C@@H](F)C%10)c9F)c8c7)cc6)CC5)CC4)ccnc32)C(=O)N1
assaySystem: BRAF V600E (Homo sapiens, UniProt P15056, V600E)
measurement: > 500 nM

For each of the compounds below, note its DC50.
1. O=C1CCC(N2Cc3cc(C[C@H](O)CN4CC5(C4)CN(c4ccc(-c6cnc7[nH]cc(C(=O)c8c(F)ccc(NS(=O)(=O)N9CC[C@@H](F)C9)c8F)c7c6)cc4)C5)ccc3C2=O)C(=O)N1 (stereo partly drawn)
2. COc1cc(N2CC3(C2)CN(CC2CCN(c4ccc(-c5cnc6[nH]cc(C(=O)c7c(F)ccc(NS(=O)(=O)N8CC[C@@H](F)C8)c7F)c6c5)cc4)CC2)[C@@H]3C)cc2c1C(=O)N(C1CCC(=O)NC1=O)C2 (stereo partly drawn)
3. COc1c(NS(=O)(=O)N2CC[C@@H](F)C2)ccc(F)c1C(=O)c1c[nH]c2ncc(-c3ccc(N4CCC(CN5CCC(c6ccc7c(c6)CN(C6CCC(=O)NC6=O)C7=O)CC5)CC4)cc3)cc12 (stereo partly drawn)
4. N#Cc1cc(-c2cnc3[nH]cc(C(=O)c4c(F)ccc(NS(=O)(=O)N5CC[C@@H](F)C5)c4F)c3c2)ccc1N1CCC(CN2CCC(c3ccc4c(c3)CN(C3CCC(=O)NC3=O)C4=O)CC2)CC1 (stereo partly drawn)
5. CN(CCN1CCN(c2ccc3c(c2)CN(C2CCC(=O)NC2=O)C3=O)CC1)[C@H]1CC[C@H](Oc2ccc(-c3cnc4[nH]cc(C(=O)c5c(F)ccc(NS(=O)(=O)N6CC[C@@H](F)C6)c5F)c4c3)cc2)CC1 (stereo partly drawn)
6. O=C1CCC(N2Cc3cc(OCCCCN4CCN(c5ncc(-c6cnc7[nH]cc(C(=O)c8c(F)ccc(NS(=O)(=O)N9CC[C@@H](F)C9)c8F)c7c6)cn5)CC4)ccc3C2=O)C(=O)N1 (stereo partly drawn)

1. 5 to 50 nM
2. 5 to 50 nM
3. 5 to 50 nM
4. 5 to 50 nM
5. 5 to 50 nM
6. 5 to 50 nM

For each of the compounds below, note its DC50.
1. O=C1CC[C@H](N2Cc3cc(C4CCN(CC5CCN(c6ccc(-c7cnc8[nH]cc(C(=O)c9c(F)ccc(NS(=O)(=O)CCO)c9F)c8c7)cc6)CC5)CC4)ccc3C2=O)C(=O)N1
2. O=C1CCC(N2Cc3cc(N4CC[C@@H]4COc4ccc(-c5cnc6[nH]cc(C(=O)c7c(F)ccc(NS(=O)(=O)N8CC[C@@H](F)C8)c7F)c6c5)cc4)ccc3C2=O)C(=O)N1 (stereo partly drawn)
3. O=C1CCC(NC(=O)c2ccc(N3CCC(CN4CC5(C4)CN(c4ccc(-c6cnc7[nH]cc(C(=O)c8c(F)ccc(NS(=O)(=O)N9CC[C@@H](F)C9)c8F)c7c6)cc4)C5)CC3)cn2)C(=O)N1 (stereo partly drawn)
4. COc1ccc(NS(=O)(=O)N2CC[C@@H](F)C2)c(F)c1C(=O)c1c[nH]c2ncc(-c3ccc(N4CCC(CN5CCC(c6ccc7c(c6)CN([C@H]6CCC(=O)NC6=O)C7=O)CC5)CC4)cc3)cc12
5. O=C1CC[C@@H](NC(=O)c2ccc(N3CC4(CN(CC5CCN(c6ccc(-c7cnc8[nH]cc(C(=O)c9c(F)ccc(NS(=O)(=O)N%10CC[C@@H](F)C%10)c9F)c8c7)cc6)CC5)C4)C3)cc2F)C(=O)N1
6. O=C1CC[C@@H](NC(=O)c2ccc(N3CCC(CN4CC5(C4)CN(c4ccc(-c6cnc7[nH]cc(C(=O)c8c(F)ccc(NS(=O)(=O)N9CC[C@@H](F)C9)c8F)c7c6)cc4)C5)CC3)cc2F)C(=O)N1

50 to 500 nM
> 500 nM
5 to 50 nM
5 to 50 nM
5 to 50 nM
> 500 nM

For each of the compounds below, note its DC50.
1. Nc1ccc(F)c(C(=O)c2c[nH]c3ncc(-c4ccc(N5CCC(CN6CC7(C6)CN(c6ccc(C(=O)N[C@H]8CCC(=O)NC8=O)c(F)c6)C7)CC5)cc4)cc23)c1F
2. O=C1CC[C@@H](N2Cc3cc(C[C@@H](O)CN4CC5(C4)CN(c4ccc(-c6cnc7[nH]cc(C(=O)c8c(F)ccc(NS(=O)(=O)N9CC[C@@H](F)C9)c8F)c7c6)cc4)C5)ccc3C2=O)C(=O)N1

["> 500 nM", "5 to 50 nM"]

These data points were gathered from patent US12180193B2.
